System: Escherichia coli TOP10;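 note: peptides expressed intracellularly from a pBAD plasmid library in pooled LB shake-flask culture, induced with 0.3% L-arabinose, DNA abundance read by NGS, three biological replicates, DESeq2 with apeglm shrinkage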
runDescription: shrunken log2 fold change of peptide-encoding DNA abundance (4.5 h post-induction vs induction); higher = less antimicrobial activity (less host growth inhibition)
conditionLabel: time post-induction: 4.5 h; library: site-saturation at positions 5, 18, 19, 20
Decide by shrunken log2 fold change: equal to or exceeding -0.03 means met, less means not met.

query: Quick check, shrunken log2 fold change >= -0.03? RRIRWRPPRLPRPRPRPVYGPRP
result: not met

query: Given RRIRSRPPRLPRPRPRPLQDPRP , state whether its shrunken log2 fold change is at least -0.03.
result: not met

query: Check the entry RRIRARPPRLPRPRPRPHSLPRP : does shrunken log2 fold change equal or exceed -0.03?
result: met

query: Record RRIRRRPPRLPRPRPRPANWPRP ; criterion: shrunken log2 fold change no lower than -0.03. Met?
result: met

query: # bool: shrunken log2 fold change of RRIRGRPPRLPRPRPRPLYYPRP >= -0.03
result: not met

query: API: above_or_equal(metric=shrunken log2 fold change, cutoff=-0.03) for item RRIRTRPPRLPRPRPRPQQIPRP
result: not met

query: Confirm if shrunken log2 fold change reported for the sequence RRIRCRPPRLPRPRPRPLTSPRP is -0.03 or above.
result: met

query: Please indicate if the recorded shrunken log2 fold change for RRIRDRPPRLPRPRPRPEFRPRP meets or exceeds -0.03.
result: met

query: Tell me whether shrunken log2 fold change is at least -0.03 here: RRIRNRPPRLPRPRPRPAFYPRP
result: not met

query: Given RRIRHRPPRLPRPRPRPKNGPRP , state whether its shrunken log2 fold change is at least -0.03.
result: not met

query: Item RRIRSRPPRLPRPRPRPMLTPRP with shrunken log2 fold change of -0.03 or above?
result: not met

query: Is it the case that RRIRHRPPRLPRPRPRPDKEPRP has shrunken log2 fold change reaching or exceeding -0.03?
result: met

query: State whether the measured shrunken log2 fold change reaches -0.03, counting equality as reaching it, for RRIRDRPPRLPRPRPRPFWEPRP
result: met

query: Please tell me: is the sequence RRIRRRPPRLPRPRPRPPVNPRP at or over -0.03 in terms of shrunken log2 fold change?
result: met

query: Assess whether reported shrunken log2 fold change for RRIRGRPPRLPRPRPRPCVEPRP sits at -0.03 or higher.
result: met

query: Has RRIRARPPRLPRPRPRPVSQPRP a recorded shrunken log2 fold change greater than or equal to -0.03?
result: met

query: Could you please find out whether RRIRKRPPRLPRPRPRPYAEPRP has shrunken log2 fold change that meets -0.03 or exceeds it?
result: not met

query: Answer whether shrunken log2 fold change of RRIRSRPPRLPRPRPRPNTKPRP is greater than or equal to -0.03.
result: not met

query: For this sequence, is measured shrunken log2 fold change -0.03 or higher? RRIRARPPRLPRPRPRPKNIPRP
result: not met

query: Reported shrunken log2 fold change reaches at least -0.03 for RRIRLRPPRLPRPRPRPGPLPRP ?
result: met

query: Could you verify whether the entry RRIRRRPPRLPRPRPRPWYLPRP shows shrunken log2 fold change of no less than -0.03?
result: not met

query: Dear colleague, could you confirm whether RRIRDRPPRLPRPRPRPDFMPRP has shrunken log2 fold change at or above -0.03?
result: met
